# assay target: SmD2 (Schistosoma mansoni)
# Sequence (G4LUJ1 entry or part of it): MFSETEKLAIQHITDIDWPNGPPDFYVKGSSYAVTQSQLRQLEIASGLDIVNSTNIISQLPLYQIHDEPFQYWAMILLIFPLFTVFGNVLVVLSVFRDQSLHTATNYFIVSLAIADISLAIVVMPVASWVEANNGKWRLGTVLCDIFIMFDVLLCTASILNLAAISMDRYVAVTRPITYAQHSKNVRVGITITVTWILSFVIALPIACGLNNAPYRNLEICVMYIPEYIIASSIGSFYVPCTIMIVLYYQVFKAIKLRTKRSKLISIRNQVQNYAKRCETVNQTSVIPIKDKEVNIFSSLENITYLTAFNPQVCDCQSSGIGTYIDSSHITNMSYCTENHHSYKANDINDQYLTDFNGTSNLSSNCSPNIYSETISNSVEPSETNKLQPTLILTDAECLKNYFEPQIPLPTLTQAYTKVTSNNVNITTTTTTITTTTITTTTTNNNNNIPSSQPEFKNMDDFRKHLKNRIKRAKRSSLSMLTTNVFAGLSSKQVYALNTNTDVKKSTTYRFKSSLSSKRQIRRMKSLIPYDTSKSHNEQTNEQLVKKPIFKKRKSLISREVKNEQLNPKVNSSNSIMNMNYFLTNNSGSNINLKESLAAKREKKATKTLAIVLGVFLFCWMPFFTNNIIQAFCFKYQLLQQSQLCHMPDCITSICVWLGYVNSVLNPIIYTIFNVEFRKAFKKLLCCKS
# assay overview: cell-based
# experimental setup: luminescent cAMP signal, agonist
pEC50: −log10 of the molar value.

{"molecule": "CNCCc1ccc(O)c(O)c1 [EPN, epinine]", "pEC50": 5.60}

###

// reported Fractional motility for each item listed
# Tested on: S. mansoni adult worms
# assay overview: Motility assay on adult parasites (pixel displacement, relative to DMSO control)
# Assay type: cell-based, Schistosoma mansoni
# experimental setup: secondary screen, 10 μM, D1, Male adult worms

{"cpd smiles": "CC(C)(Cc1ccc2ccccc2c1)NC[C@@H](O)COc1cccc(Cl)c1C#N", "Fractional motility": -0.52}
{"cpd smiles": "CN1CCC(CNc2ccc3ncc(-c4cccc(OC(F)(F)F)c4)n3n2)CC1", "Fractional motility": 9.87}
{"cpd smiles": "C#C[C@]1(O)C=C[C@H]2[C@@H]3CCC4=CC(=O)CC[C@@H]4[C@H]3CC[C@@]21CC", "Fractional motility": 3.68}
{"cpd smiles": "CCCCCCCCc1ccc(CCC(N)(CO)CO)cc1", "Fractional motility": 0.65}
{"cpd smiles": "CN1CCN(C2=Nc3cc(Cl)ccc3Nc3ccccc32)CC1", "Fractional motility": 2.19}
